Quick list: one-hybrid fitness for binding parS DNA per entry.
B1: Caulobacter ParB omega fusion; a variant is named by its letters at X, in order, B8GW30 (parent)
chain: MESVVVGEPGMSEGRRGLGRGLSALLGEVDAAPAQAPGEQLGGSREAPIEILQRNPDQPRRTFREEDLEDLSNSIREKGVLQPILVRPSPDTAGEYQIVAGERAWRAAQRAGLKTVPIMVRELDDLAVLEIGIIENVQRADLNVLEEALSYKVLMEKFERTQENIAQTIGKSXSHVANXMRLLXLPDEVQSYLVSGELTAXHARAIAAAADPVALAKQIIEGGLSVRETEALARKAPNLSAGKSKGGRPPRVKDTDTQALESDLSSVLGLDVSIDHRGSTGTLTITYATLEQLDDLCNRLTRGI

- Variants of: B1
- Run description: one-hybrid fitness for binding parS DNA (scaled: cognate 1, non-cognate 0); higher = stronger binding
- Condition label: with parS DNA site
The full ranking holds about 81,000 sequences; the median of “one-hybrid fitness for binding parS DNA” is about -0.17, and the highest 2% start at about 0.51. Only a selection was taken, and the highest values are over-represented in it overall.

| Mutation | one-hybrid fitness for binding parS DNA |
| --- | --- |
| RIRT | 0.848 |
| RSTP | ≤ 0.2 |
| RMIH | 0.223 |
| FVPC | ≤ 0.2 |
| RTTG | 1 |
| GITA | ≤ 0.2 |
| REVG | ≤ 0.2 |
| DLIT | ≤ 0.2 |

Entry RMPY ; one-hybrid fitness for binding parS DNA = 0.322

Reported one-hybrid fitness for binding parS DNA ( RERS ) = 0.529

Recorded result, NQKT , one-hybrid fitness for binding parS DNA: ≤ 0.2

// recorded one-hybrid fitness for binding parS DNA for LPIQ : ≤ 0.2

one-hybrid fitness for binding parS DNA recorded for this variant, REKG , is 0.533

// one-hybrid fitness for binding parS DNA value for GARV : ≤ 0.2

The variant identified as RWFT registered its one-hybrid fitness for binding parS DNA at 0.497

Hey, just so you know, these numbers are from a collection of fitness landscapes (doi:10.1016/j.celrep.2020.107928).
